meta.source: patent US20140135270A1

# maps each entry to its IC50
# target.system: His-BIR2-3 (125-356, C202A/C213G, XIAP) (Homo sapiens, UniProt P98170, C202A/C213G)
# Construct: additions of His-BIR2-3 (125-356, C202A/C213G, XIAP), fluorescein labeled dimeric SMAC peptide
# Sequence (P98170 125-356 C202A/C213G): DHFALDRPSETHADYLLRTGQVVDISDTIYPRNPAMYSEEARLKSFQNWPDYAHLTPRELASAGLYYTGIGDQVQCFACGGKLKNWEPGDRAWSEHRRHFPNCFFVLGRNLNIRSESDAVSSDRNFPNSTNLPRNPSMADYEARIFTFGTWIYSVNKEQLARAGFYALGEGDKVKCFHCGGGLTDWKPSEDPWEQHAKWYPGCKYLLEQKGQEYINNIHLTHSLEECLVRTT
# test.name: XIAP-BIR2-3 Dimeric SMAC Peptide Homogeneous Time Resolved Fluorescence (HTRF) Assay
# conditions.used: fluorescein labeled dimeric SMAC peptide
quantity.measured: IC50 (nM)

compound="CN[C@@H](C)C(=O)N[C@H](C(=O)N1C[C@@H]2C[C@H]1C(=O)NC(Cc1ccc3ccccc3c1)C(=O)N[C@H](C(=O)O)Cc1ccc(cc1)OCCCC[C@H]1C[C@@H](C(=O)N[C@@H](Cc3ccc4ccccc4c3)C(=O)N[C@H](c3nnn[nH]3)Cc3ccc(cc3)OCc3cn2nn3)N(C(=O)[C@@H](NC(=O)[C@H](C)NC)C(C)(C)C)C1)C(C)(C)C (stereo partly drawn) [Example 99]" quantity_measured=IC50 reported=3.7
compound="CN[C@@H](C)C(=O)N[C@H](C(=O)N1C[C@@H]2C[C@H]1C(=O)N[C@@H](Cc1ccc3ccccc3c1)C(=O)N[C@H](C(=O)O)Cc1ccc(cc1)OC/C=C/C[C@H]1C[C@@H](C(=O)N[C@@H](Cc3ccc4ccccc4c3)C(=O)N[C@H](C(=O)NS(=O)(=O)C3CC3)Cc3ccc(cc3)OCc3cn2nn3)N(C(=O)[C@@H](NC(=O)[C@H](C)NC)C(C)(C)C)C1)C(C)(C)C [Example 86]" quantity_measured=IC50 reported=1.1
compound="CNC(C)C(=O)NC(C(=O)N1CC2CCCCOc3ccc(cc3)CC(C(=O)NS(=O)(=O)CCCNC(C)=O)NC(=O)C(Cc3ccc4ccccc4c3)NC(=O)C3CC(CN3C(=O)C(NC(=O)C(C)NC)C(C)(C)C)n3cc(nn3)COc3ccc(cc3)CC(C(=O)O)NC(=O)C(Cc3ccc4ccccc4c3)NC(=O)C1C2)C(C)(C)C (stereo not drawn) [Example 27]" quantity_measured=IC50 reported=2.7
compound="CN[C@@H](C)C(=O)N[C@H](C(=O)N1C[C@@H]2C[C@H]1C(=O)N[C@@H](Cc1ccc3ccccc3c1)C(=O)N[C@H](C(=O)O)Cc1ccc(cc1)OC/C=C/CO[C@H]1C[C@@H](C(=O)N[C@@H](C(c3ccccc3)c3ccccc3)C(=O)N[C@H](C(=O)O)Cc3ccc(cc3)C(=O)N2)N(C(=O)[C@@H](NC(=O)[C@H](C)NC)C(C)(C)C)C1)C(C)(C)C [Example 62]" quantity_measured=IC50 reported=8
compound="CN[C@@H](C)C(=O)N[C@H](C(=O)N1C[C@@H]2C[C@H]1C(=O)N[C@@H](Cc1ccc3ccccc3c1)C(=O)N[C@H](C(=O)O)Cc1ccc(cc1)OCCCCO[C@H]1C[C@@H](C(=O)N[C@@H](Cc3ccc4ccccc4c3)C(=O)N[C@H](C(=O)NS(=O)(=O)C3CC3)Cc3ccc(cc3)OCc3cn2nn3)N(C(=O)[C@@H](NC(=O)[C@H](C)NC)C(C)(C)C)C1)C(C)(C)C [Example 120]" quantity_measured=IC50 reported=8
compound="CNC(C)C(=O)NC(C(=O)N1CC2CC1C(=O)NC(Cc1ccc3ccccc3c1)C(=O)NC(C(=O)O)Cc1ccc(cc1)OCC=CCOC1CC(C(=O)NC(Cc3ccc4ccccc4c3)C(=O)NC(C(=O)O)Cc3ccc(cc3)CC(=O)N2)N(C(=O)C(NC(=O)C(C)NC)C(C)(C)C)C1)C(C)(C)C (stereo not drawn) [Example 30]" quantity_measured=IC50 reported=1.1
